Each entry below carries its reported log10 of IC50.
- study target: human recombinant BACE2 (Homo sapiens (Human), UniProt Q9Y5Z0)
- Sequence (Q9Y5Z0 63-518): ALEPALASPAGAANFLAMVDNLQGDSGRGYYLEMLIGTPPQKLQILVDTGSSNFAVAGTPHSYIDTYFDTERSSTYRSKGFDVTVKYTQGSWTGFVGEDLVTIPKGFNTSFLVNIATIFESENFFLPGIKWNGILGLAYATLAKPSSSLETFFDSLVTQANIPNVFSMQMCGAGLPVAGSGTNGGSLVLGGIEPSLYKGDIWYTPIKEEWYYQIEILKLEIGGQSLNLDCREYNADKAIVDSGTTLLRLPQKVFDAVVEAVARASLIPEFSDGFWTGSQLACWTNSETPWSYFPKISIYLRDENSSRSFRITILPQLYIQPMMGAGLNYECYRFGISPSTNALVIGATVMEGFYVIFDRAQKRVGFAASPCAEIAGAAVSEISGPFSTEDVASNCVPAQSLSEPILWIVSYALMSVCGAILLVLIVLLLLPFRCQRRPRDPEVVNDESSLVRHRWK
- assay details: In vitro enzymatic BACE2 FRET assay
- Assay type: biochemical
- run parameters: read-out: IC50 IP (μM) BACE2 enzyme
- Procedure: These recombinant proteins were further purified using Ni-NTA affinity chromatography (Qiagen). […] This assay is effectively started by the addition of FRET substrate (50 nM) and the combination is incubated for one hour. The FRET assay is terminated by addition of Tris buffer, which raises the pH to neutrality, and the fluorescence is determined. […] Proteolytic cleavage of the FRET substrate releases quenching of fluorescence (excitation 488 nm and emission 590 nm).
A difference of one corresponds to tenfold IC50; all values are log10 with IC50 in µM.

These recorded examples may help you get a feel for the data.
COC[C@]12C[C@H]1[C@@](C)(c1cc(Nc3nccc4nc(OCc5noc(C)n5)cnc34)cc(F)c1F)N=C(N)S2 -0.84
[2H]C([2H])([2H])OC[C@]12C[C@H]1[C@@](C)(c1cc(Nc3nccc4nc(OC([2H])([2H])C#C)cnc34)cnc1F)N=C(N)S2 -1.42
C#CCOc1ccc(C(=O)Nc2ccc(F)c([C@@]3(CF)N=C(N)S[C@@]4(c5ocnc5C)C[C@@H]34)c2)nc1 -2.03
COc1cnc2c(Nc3cc(F)c(F)c([C@@]4(C)N=C(N)S[C@H]5C[C@H]54)c3)nccc2n1 -1.01
C#CCOc1cnc2c(Nc3cnc(F)c([C@@]4(C)N=C(N)S[C@@]5([C@@H](OC)C(F)(F)F)C[C@H]54)c3)nccc2n1 -2.02

For the molecule `C/C(=C\[C@]12C[C@H]1[C@@](CF)(c1cc(NC(=O)c3ccc(Cl)cn3)ccc1F)N=C(N)S2)C(=O)N1CCOCC1` , give its reported log10 of IC50.
-2.59

For the molecule `C[C@]1(c2cc(NC(=O)c3cnc(OCC(F)(F)C(F)F)cn3)cnc2F)N=C(N)S[C@@]2(CF)C[C@H]21` , give its reported log10 of IC50.
-0.71

For the molecule `C#CCOc1cnc2c(Nc3ccc(F)c([C@@]4(C)N=C(N)S[C@@]5([C@H](O)C(F)(F)F)C[C@H]54)c3)nccc2n1` , give its reported log10 of IC50.
-1.63

Values from patent US20160046618A1
